test method notes: chemical genetic growth profiling, strain panel (AID 1159580);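 also: tested at 20 µM; growth read once vehicle control cultures reached saturation at 30 °C; 1 = growth at the plate median or of vehicle wells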
test parameters: S. cerevisiae deletion strains, growth OD, locus YBR171W, strain sec66, stronger effect = lower value
In all, about 5,500 compounds went through this assay and about 2,000 (36%) were called active. About 18% were inconclusive and are not listed. This is one part of the list.
// values below are reported normalized growth
Please give the numeric answer without any surrounding text.

input: Name the reported normalized growth value associated with the compound OC(CCN1CCCCC1)(c1ccccc1)c1ccccc1
output: 0.987

New cases:
input: Consider the compound shown here: CCSC(=N)N What is its recorded normalized growth?
output: 1.02

input: Would you mind telling me what normalized growth value was observed for COC(=O)C1=COC(OC2OC(CO)C(O)C(O)C2O)C2C(C)CC(=O)C12O (stereo not drawn) ?
output: 0.983

input: If you can, please state the reported normalized growth value of CC1(C)C2CC[C@]3(C)C(C(=O)C=C4[C@@H]5C[C@@](C)(C(=O)O)CC[C@]5(C)CC[C@]43C)[C@@]2(C)CC[C@@H]1O (stereo partly drawn) .
output: 1

input: Please give the measured normalized growth for this compound: Cc1cc(=O)c2c(O)cc(O)c(C)c2o1
output: 0.921

input: Which normalized growth value is on record for COc1ccc2c(c1)OC[C@@H](Cc1ccc(OC)c(OC)c1)[C@H]2O ?
output: 1.01

input: Entry under review: C[N+](C)(C)CCOP(=O)([O-])OP(=O)(O)OC[C@H]1OC(n2ccc(N)nc2=O)[C@H](O)[C@@H]1O (stereo partly drawn) . Reported normalized growth?
output: 0.962

input: I have this compound here, COc1c2c(c(CC=C(C)C)c3oc(=O)c(-c4ccc(O)cc4)c(O)c13)OC(C)(C)C=C2 , and I need its recorded normalized growth.
output: 0.989

----------
test method notes: chemical genetic growth profiling, strain panel (AID 1159580)
test parameters: S. cerevisiae deletion strains, growth OD, locus YGL086W, strain mad1, stronger effect = lower value
Screen size: about 5,500 compounds; about 2,000 (36%) were called active. Another 18% or so got no clear call; they are omitted. The list shows a part of the results.
Label 1 when normalized growth is strictly below 1; at or above that, label 0.

input: Does the reported normalized growth of the following compound sit strictly below 1? COc1ccc(-c2coc3c(OC)c(O)ccc3c2=O)cc1
output: 1

Others:
input: Please let me know if COC(=O)[C@@H]1C(O)CC[C@H]2CN3CCc4c([nH]c5ccccc45)[C@@H]3C[C@@H]21 (stereo not given in full) shows normalized growth below 1.
output: 1

input: Item COc1ccc(-c2coc3c(OC)c(OC)ccc3c2=O)cc1 : normalized growth beneath 1, strictly?
output: 1

input: For COc1ccc2c(c1)[C@@]1(C)CCC(=O)C[C@H]1CC2 , is the recorded normalized growth below the cut-off of 1?
output: 1

input: In plain terms, does COc1ccc(C[C@H]2NC[C@H](O)[C@H]2OC(C)=O)cc1 come in under 1 for normalized growth?
output: 1

----------
test method notes: chemical genetic growth profiling, strain panel (AID 1159580);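 also: tested at 20 µM; growth read once vehicle control cultures reached saturation at 30 °C; 1 = growth at the plate median or of vehicle wells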
test parameters: S. cerevisiae deletion strains, growth OD, locus YMR219W, strain ESC1, stronger effect = lower value
About 2,000 (36%) of roughly 5,500 compounds were called active. Another 18% or so got no clear call; they are omitted. This is one part of the list.
attribute measured: normalized growth
The reply should be a number, written without any unit.

Before answering, review these 10 worked examples.
input: Query: normalized growth; subject: CCCCOc1ccc(C(=O)CCC(=O)O)cc1
output: 0.983

input: Recorded normalized growth for Cc1cc(NC(=O)C(Cl)(Cl)Cl)n(-c2ccccc2)n1 , please?
output: 0.991

input: // query normalized growth value for entry Cc1cc(C)c(NC(=S)NCCCN2CCOCC2)c(C)c1
output: 1

input: Which normalized growth value is on record for COC(=O)c1c(C)[nH]c(C)c1C(C)=O ?
output: 1.01

input: Record request: normalized growth value, item CCCC(C)(SCC(=O)O)SCC(=O)O
output: 0.999

input: What value of normalized growth has been recorded for this entry: CN(C)/C=C(\C#N)C(=O)Nc1ccc(F)c(Cl)c1
output: 1.01

input: What does the data say about its normalized growth? Entry: CC(=O)/C(=C\Nc1ncccn1)S(=O)(=O)c1ccc(Cl)cc1
output: 0.998

input: Quick one: normalized growth of COc1ccc(OC)c(C(=O)c2cc(OC)c(OC)c(OC)c2)c1 ?
output: 1.01

input: Value lookup for normalized growth; key = O=c1[nH]c2cccnc2[nH]c1=O
output: 1.03

input: Quick check: normalized growth of CC1(C)/C(=N/OC(=O)c2cccc(C(F)(F)F)c2)[C@]2(C)CCC1C2 ?
output: 0.987

***
input: // query normalized growth value for entry FC(F)(F)c1ccnc(-n2ccc(-c3cccs3)n2)n1
output: 0.995

input: So what's the measured normalized growth for this one? O=C(O)CSCCOc1ccccc1
output: 1

input: # input molecule: N#Cc1cnn(-c2ccccc2)c1-n1cccc1 ; wanted: its normalized growth
output: 0.981

input: Need normalized growth of CC(=O)OCc1ccc(/C=C(\C#N)S(=O)(=O)c2ccc(Cl)cc2)o1 , thanks.
output: 0.993

input: Which measured normalized growth value corresponds to COc1ccc(S(=O)(=O)Nc2cc(C)c(C)cc2[N+](=O)[O-])c(OC)c1 ?
output: 0.999

input: Tell me the measured normalized growth of CC(=O)Nc1cccc(-n2nnc(SCc3ccccc3)n2)c1 , please.
output: 0.993

----------
test method notes: chemical genetic growth profiling, strain panel (AID 1159580);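 also: tested at 20 µM; growth read once vehicle control cultures reached saturation at 30 °C; 1 = growth at the plate median or of vehicle wells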
test parameters: S. cerevisiae deletion strains, growth OD, locus YJR016C, strain ILV3, stronger effect = lower value
Among all 5,500 compounds or so, about 2,000 (36%) were called active. About 18% were inconclusive and are not listed. The list shows a part of the results.
attribute measured: normalized growth
The response must contain the number and no unit.

input: Look at this compound and give its reported normalized growth. CC1=CC(=O)C(CCOCCC2=CC(=O)C(C)=CC2=O)=CC1=O
output: 0.987

input: State the recorded normalized growth for this entry: O=C(C=C(O)c1ccc(Br)cc1)C(=O)Nc1ccccc1
output: 0.156

input: Suppose we examine the compound COc1ccc(NC(=O)O/N=C(/N)c2ccc(Oc3c(Cl)cncc3Cl)cc2)cc1 ; what normalized growth value has been reported?
output: 0.975

input: # query: normalized growth of entry NCCCN=c1ccc2c3c1c(O)c1c(O)ccc(=O)c1c3[nH]n2CCNCCO
output: 0.982

---
input: Which measured normalized growth value corresponds to Cc1c(Cl)cccc1NC(=S)N1CCCN(c2ccc(C(F)(F)F)cc2[N+](=O)[O-])CC1 ?
output: 0.982

----------
test method notes: chemical genetic growth profiling, strain panel (AID 1159580);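 also: tested at 20 µM; growth read once vehicle control cultures reached saturation at 30 °C; 1 = growth at the plate median or of vehicle wells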
test parameters: S. cerevisiae deletion strains, growth OD, locus YHR079C, strain IRE1 (second series), stronger effect = lower value
Screen size: about 5,500 compounds; about 2,000 (36%) were called active. Roughly 18% stayed inconclusive and do not appear here. This is one part of the list.
Threshold-based label: normalized growth under 1 gives y, normalized growth not under 1 gives n.

input: Answer whether the compound COc1ccc(-c2coc3c(OC)c(O)ccc3c2=O)cc1 has normalized growth strictly less than 1
output: y

input: Given CCCCOc1ccc(OCCCN2CCOCC2)cc1 , is recorded normalized growth strictly lower than 1?
output: y

input: Hi there! Is normalized growth for COc1cc(O)c(C(=O)c2ccccc2)cc1O below 1, do you know?
output: y

input: # check: normalized growth < 1 for COc1ccc(-c2coc3c(O)c(OC)ccc3c2=O)cc1
output: y

input: Lab log: compare recorded normalized growth with 1; is it strictly lower for COc1ccc(C(=O)c2ccccc2)c(O)c1 ?
output: y

input: Please indicate whether the reported normalized growth of C=C1CC[C@H](O)C/C1=C/C=C1\CCC[C@]2(C)C([C@H](C)/C=C/[C@H](C)C(C)C)CC[C@@H]12 (some centres undefined) is strictly below 1.
output: y

input: Quick check: normalized growth of Cc1cc(C(C)(C)CC(C)(C)C)ccc1OCCOCC[N+](C)(C)Cc1ccccc1 under 1?
output: y

input: Please indicate whether the reported normalized growth of COC1C(O)C(O)C(O)[C@@H](O)C1O (some centres undefined) is strictly below 1.
output: n

input: # TODO verify normalized growth < 1 strictly for this compound: CCCCOc1ccc(C(=O)CCN2CCCCC2)cc1
output: y

input: Given COc1ccc(C(=O)c2ccccc2O)c(O)c1 , is recorded normalized growth strictly lower than 1?
output: y

***
input: Lab log: compare recorded normalized growth with 1; is it strictly lower for C=C(C)/C=C1/C=CC(=O)C(C)=C1 ?
output: y

input: Say whether its normalized growth is strictly beneath 1. Entry: c1ccc(CC2=NCCN2)cc1
output: y

input: Does CC(=O)O[C@H]1C(=O)[C@@]2(C)C([C@H](OC(=O)c3ccccc3)[C@]3(O)C[C@H](OC(=O)[C@H](O)[C@@H](NC(=O)c4ccccc4)c4ccccc4)C(C)=C1C3(C)C)[C@]1(OC(C)=O)CO[C@@H]1C[C@@H]2O (some centres undefined) have normalized growth strictly under 1?
output: n
